All figures here come from ChEMBL document CHEMBL1138268.

Assay Explanation: Cytotoxicity against MCA-TK cells
Assay type: cell-based
Measurement Kind: pIC50
Numbers only, as −log10 of the molar value.

Ask: Please report pIC50 for the following compound: Nc1nc2c(ncn2COC(CO)CO)c(=O)[nH]1 [GANCICLOVIR]
Reply: 6.82

---

Assay Explanation: Metabolic stability in mouse serum after 6 hrs
Assay type: ADME, cell-free
Measurement Kind: half-life
# number then unit; no other words

Ask: Please report half-life for the following compound: O=c1[nH]c(=O)n([C@H]2C[C@H](O)[C@@H](CO)O2)cc1I
Reply: 1360 min
